Cited source: ChEMBL document CHEMBL5390237

- ASSAY_TARGET: Histone deacetylase 3/NCoR1 (Homo sapiens)
- Sequence (O15379 whole entry, the tested form may be a part): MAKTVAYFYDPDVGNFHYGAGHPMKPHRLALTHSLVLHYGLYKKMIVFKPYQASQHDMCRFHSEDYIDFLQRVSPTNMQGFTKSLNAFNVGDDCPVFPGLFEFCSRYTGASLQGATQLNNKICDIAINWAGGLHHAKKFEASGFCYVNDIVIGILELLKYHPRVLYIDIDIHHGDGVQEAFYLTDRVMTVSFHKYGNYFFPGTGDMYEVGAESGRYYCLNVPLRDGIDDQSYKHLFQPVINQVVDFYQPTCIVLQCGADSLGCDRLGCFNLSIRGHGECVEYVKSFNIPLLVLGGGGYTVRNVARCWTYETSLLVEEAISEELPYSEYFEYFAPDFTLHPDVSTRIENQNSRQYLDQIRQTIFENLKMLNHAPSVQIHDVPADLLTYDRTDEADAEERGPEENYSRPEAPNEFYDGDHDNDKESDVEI
- Sequence (O75376 whole entry, further chain, the tested form may be a part): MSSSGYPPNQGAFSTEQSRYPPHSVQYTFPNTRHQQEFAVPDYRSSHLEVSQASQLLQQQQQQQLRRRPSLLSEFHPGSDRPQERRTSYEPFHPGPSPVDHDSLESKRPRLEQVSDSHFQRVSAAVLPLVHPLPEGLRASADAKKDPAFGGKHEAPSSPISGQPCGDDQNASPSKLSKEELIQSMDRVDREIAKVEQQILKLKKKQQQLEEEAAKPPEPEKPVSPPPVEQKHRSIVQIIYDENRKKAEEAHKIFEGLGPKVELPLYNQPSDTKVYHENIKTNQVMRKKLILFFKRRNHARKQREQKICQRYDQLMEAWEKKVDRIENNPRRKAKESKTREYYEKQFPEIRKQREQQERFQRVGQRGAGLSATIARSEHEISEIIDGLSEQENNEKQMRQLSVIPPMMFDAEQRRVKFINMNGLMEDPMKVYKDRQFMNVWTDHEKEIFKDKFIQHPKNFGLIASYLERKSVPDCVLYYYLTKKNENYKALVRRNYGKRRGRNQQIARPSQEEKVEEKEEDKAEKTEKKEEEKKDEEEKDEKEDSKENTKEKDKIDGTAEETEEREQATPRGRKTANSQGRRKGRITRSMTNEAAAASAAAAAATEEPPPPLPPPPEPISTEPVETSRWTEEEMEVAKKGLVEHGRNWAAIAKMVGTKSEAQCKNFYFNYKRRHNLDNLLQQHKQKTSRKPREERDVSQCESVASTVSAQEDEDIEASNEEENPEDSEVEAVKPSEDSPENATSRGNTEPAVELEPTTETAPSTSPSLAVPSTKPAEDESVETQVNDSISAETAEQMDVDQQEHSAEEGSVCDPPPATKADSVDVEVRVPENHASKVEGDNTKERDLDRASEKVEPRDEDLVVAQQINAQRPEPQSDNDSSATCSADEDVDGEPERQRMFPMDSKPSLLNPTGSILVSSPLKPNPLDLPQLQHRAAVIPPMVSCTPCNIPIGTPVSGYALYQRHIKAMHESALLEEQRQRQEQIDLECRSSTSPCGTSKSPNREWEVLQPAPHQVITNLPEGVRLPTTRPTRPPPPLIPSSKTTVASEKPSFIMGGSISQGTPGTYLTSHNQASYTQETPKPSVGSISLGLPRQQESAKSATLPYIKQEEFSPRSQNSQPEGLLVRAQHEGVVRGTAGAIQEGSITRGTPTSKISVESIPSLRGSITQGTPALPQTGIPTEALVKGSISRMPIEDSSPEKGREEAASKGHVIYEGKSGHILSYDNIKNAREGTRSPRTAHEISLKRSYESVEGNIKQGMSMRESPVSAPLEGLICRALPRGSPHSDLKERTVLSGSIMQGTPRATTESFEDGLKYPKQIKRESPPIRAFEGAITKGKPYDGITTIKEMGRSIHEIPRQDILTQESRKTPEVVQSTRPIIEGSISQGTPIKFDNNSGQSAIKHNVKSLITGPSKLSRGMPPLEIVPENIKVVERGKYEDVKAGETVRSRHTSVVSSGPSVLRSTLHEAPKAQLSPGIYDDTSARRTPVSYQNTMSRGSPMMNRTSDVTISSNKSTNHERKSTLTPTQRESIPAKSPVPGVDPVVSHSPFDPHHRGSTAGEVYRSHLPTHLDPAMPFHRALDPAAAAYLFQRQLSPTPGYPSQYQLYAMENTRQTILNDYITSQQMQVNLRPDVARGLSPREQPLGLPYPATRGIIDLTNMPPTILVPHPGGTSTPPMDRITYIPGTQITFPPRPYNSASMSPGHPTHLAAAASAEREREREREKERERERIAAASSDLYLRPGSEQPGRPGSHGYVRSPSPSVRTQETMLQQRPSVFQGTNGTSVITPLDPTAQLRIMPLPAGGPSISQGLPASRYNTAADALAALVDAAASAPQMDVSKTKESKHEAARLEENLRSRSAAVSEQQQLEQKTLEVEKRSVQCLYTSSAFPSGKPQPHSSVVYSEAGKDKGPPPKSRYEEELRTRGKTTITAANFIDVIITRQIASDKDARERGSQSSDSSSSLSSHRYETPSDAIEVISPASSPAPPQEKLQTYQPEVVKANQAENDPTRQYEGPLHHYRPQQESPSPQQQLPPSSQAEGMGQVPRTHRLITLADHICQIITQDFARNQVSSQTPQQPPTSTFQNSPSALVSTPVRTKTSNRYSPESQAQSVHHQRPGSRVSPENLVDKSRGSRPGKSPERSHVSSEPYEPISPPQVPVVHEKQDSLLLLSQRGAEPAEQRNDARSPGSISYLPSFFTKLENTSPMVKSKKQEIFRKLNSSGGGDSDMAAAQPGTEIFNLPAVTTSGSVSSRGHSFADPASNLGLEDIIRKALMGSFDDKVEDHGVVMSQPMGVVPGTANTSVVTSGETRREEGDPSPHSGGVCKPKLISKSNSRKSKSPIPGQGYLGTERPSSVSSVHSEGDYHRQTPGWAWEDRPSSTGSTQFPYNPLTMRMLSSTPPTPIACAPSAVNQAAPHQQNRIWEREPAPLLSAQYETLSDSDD
- TEST_NAME: Inhibition of recombinant human HDAC3/human GST-tagged NCOR1 (397 to 503 residues) using K(Ac)382 peptide substrate preincubated for 3 hrs followed by substrate addition and measured after 30 mins by HDAC-Glo I/II chemiluminescence assay
pIC50: −log10 of the molar value.
PARAMETER: pIC50

For reference, reported pIC50 for Nc1ccc(-c2cccs2)cc1NC(=O)c1ccc(-c2cn(C[S+]([O-])c3ccccc3)nn2)cc1 (stereo not drawn) stands at < 5.00

# pIC50 of "Nc1ccc(-c2cccs2)cc1NC(=O)c1ccc(-c2cn(CCc3ccccn3)nn2)cc1" = < 5.00

The recorded pIC50 for entry "Nc1ccc(-c2cccs2)cc1NC(=O)c1ccc(-c2cn(CS(=O)(=O)c3ccccc3)nn2)cc1" equals < 5.00

###

- ASSAY_TARGET: Histone deacetylase 2 (Homo sapiens)
- Sequence (Q92769 whole entry): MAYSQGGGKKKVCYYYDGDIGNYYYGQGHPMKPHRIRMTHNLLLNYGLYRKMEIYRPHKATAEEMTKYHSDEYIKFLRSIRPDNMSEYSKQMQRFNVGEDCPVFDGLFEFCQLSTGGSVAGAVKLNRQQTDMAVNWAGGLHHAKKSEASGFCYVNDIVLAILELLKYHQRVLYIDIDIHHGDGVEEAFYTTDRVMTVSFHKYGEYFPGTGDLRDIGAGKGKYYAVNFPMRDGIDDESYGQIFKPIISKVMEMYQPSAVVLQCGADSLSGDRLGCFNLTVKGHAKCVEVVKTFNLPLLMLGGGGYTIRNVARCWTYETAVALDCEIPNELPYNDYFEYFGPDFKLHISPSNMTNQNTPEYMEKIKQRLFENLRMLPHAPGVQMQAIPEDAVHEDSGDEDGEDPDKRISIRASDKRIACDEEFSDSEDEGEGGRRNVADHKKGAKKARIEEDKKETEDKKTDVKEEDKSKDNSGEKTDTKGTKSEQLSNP
- TEST_NAME: Inhibition of full-length recombinant human C-terminal GST tagged HDAC2 expressed in Sf9 insect cells using aminoluciferin peptide substrate at 100 nM preincubated for 3 hrs followed by substrate addition and measured after 30 mins by HDAC-Glo I/II chemiluminescence assay
- TEST_CONTEXT: time 3.5 hrs
Would you mind classing the entries by inhibition? Ranges: group A (below 2%), group B (2% to below 20%), group C (20% or more)

Class for "Cc1cccc(CCn2cc(CCC(=O)Nc3cc(-c4ccccc4)ccc3N)nn2)c1" ?
group C

Note: place this compound into its band. Item: "Nc1ccc(-c2ccc(F)cc2)cc1NC(=O)CCc1cn(CCN2CCc3ccccc3C2)nn1"
group B

Which category fits this record: "Cc1ccccc1CCn1cc(C(=O)Nc2cc(-c3ccc(F)cc3)ccc2N)nn1"
group A

Into which category would you place "Nc1ccc(-c2cccnc2)cc1NC(=O)CCc1cn(CCc2ccccc2)nn1" ?
group C

Record "Nc1ccc(-c2ccsc2)cc1NC(=O)CCc1cn(CCCCC(=O)O)nn1" — which class?
group A

Bin this entry: "Nc1ccc(-c2ccc(F)cc2)cc1NC(=O)c1cn(-c2ccc(Br)cc2)nn1"
group B

Which bin should I file "Nc1ccc(-n2cc(CCC(=O)Nc3cc(-c4ccsc4)ccc3N)nn2)cc1" under?
group C

Sort into band: "Nc1ccc(-c2cccs2)cc1NC(=O)c1cccc(-c2cn(CCc3cccc([N+](=O)[O-])c3)nn2)c1"
group B

Which bin, given its inhibition, does "COc1ccccc1CCn1cc(CCC(=O)Nc2cc(-c3ccccc3)ccc2N)nn1" occupy?
group B

Would you mind sorting "Nc1ccc(-c2ccc(F)cc2)cc1NC(=O)c1cn(-c2ccc([N+](=O)[O-])cc2)nn1" into the appropriate category?
group B

Which class holds "COc1ccccc1CCn1cc(-c2ccc(C(=O)Nc3cc(-c4cccs4)ccc3N)cc2)nn1" ?
group C

Which category fits this record: "Nc1ccc(-c2cccs2)cc1NC(=O)c1cccc(-c2cn(CCCCCCCC(=O)O)nn2)c1"
group B

Note: place this compound into its band. Item: "Nc1ccc(-c2cccs2)cc1NC(=O)CCc1cn(CCCc2ccccc2)nn1"
group B

Record "Nc1ccc(-c2ccc(F)cc2)cc1NC(=O)c1cn(CCc2ccc(C(F)(F)F)cc2)nn1" — which class?
group A

GET /class?item= "Nc1ccc(-c2cccs2)cc1NC(=O)c1ccc(-c2cn(Cc3ccc4ccccc4c3)nn2)s1"
group B

# classify by inhibition band: "Nc1ccc(-c2ccccc2)cc1NC(=O)CCc1cn(CCCCCC(=O)O)nn1"
group A

Category of "Cc1cccc(C)c1NC(=O)Cn1cc(C(=O)Nc2cc(-c3cccs3)ccc2N)nn1" :
group C

Categorize the following entry: "Nc1ccc(-c2cccs2)cc1NC(=O)c1cccc(-c2cn(CCc3c[nH]c4ccccc34)nn2)c1"
group B

The entry to classify is "COc1ccc(Cn2cc(CCC(=O)Nc3cc(-c4ccsc4)ccc3N)nn2)cc1" ; which class holds it?
group C

For "Nc1ccc(-c2cccs2)cc1NC(=O)c1cccc(-c2cn(CCc3ccc(C(F)(F)F)cc3)nn2)c1" , which inhibition bin applies?
group A

Into which category would you place "COc1ccc(Cn2cc(C(=O)Nc3cc(-c4ccc(F)cc4)ccc3N)nn2)cc1" ?
group B

Classify this compound: "Nc1ccc(-c2cccs2)cc1NC(=O)c1ccc(-c2cn(CCC3CCCC3)nn2)cc1"
group A

Hi there! Could you help me figure out the category for "Cc1cccc(C)c1NC(=O)Cn1cc(CCC(=O)Nc2cc(-c3cccs3)ccc2N)nn1" please?
group B

Lab note: which band did "Nc1ccc(-c2ccc(F)cc2)cc1NC(=O)CCc1cn(CCc2ccccc2C(F)(F)F)nn1" land in?
group A

Category of "COc1ccc(-n2cc(C(=O)Nc3cc(-c4ccc(F)cc4)ccc3N)nn2)cc1" :
group B

Determine which band this compound sits in: "Nc1ccc(-c2cccs2)cc1NC(=O)CCc1cn(-c2ccc(O)cc2)nn1"
group B

Tag the class for "Nc1ccc(-c2cccs2)cc1NC(=O)c1cccc(-c2cn(CCc3ccc([N+](=O)[O-])cc3)nn2)c1"
group A

Category of "Nc1ccc(-c2cccs2)cc1NC(=O)CCc1cn(CC(=O)Nc2ccc(F)cc2)nn1" :
group C

Tag the class for "Nc1ccc(-c2ccc(F)cc2)cc1NC(=O)c1cn(Cc2ccc(OC(F)(F)F)cc2)nn1"
group A

Band assignment needed for "COc1ccccc1CCn1cc(CCC(=O)Nc2cc(-c3cccs3)ccc2N)nn1" please.
group B

Which bin, given its inhibition, does "Nc1ccc(-c2cccnc2)cc1NC(=O)CCc1cn(CCc2cccc(Cl)c2)nn1" occupy?
group C

Category of "Nc1ccc(-c2cccnc2)cc1NC(=O)CCc1cn(Cc2cccc(C(=O)O)c2)nn1" :
group A

GET /class?item= "Cc1cccc(CCn2cc(C(=O)Nc3cc(-c4cccs4)ccc3N)nn2)c1"
group B

Which class does "Nc1ccc(-c2ccsc2)cc1NC(=O)c1cn(Cc2ccc3ccccc3n2)nn1" fall in?
group B

Field: class (inhibition) — entry: "Cc1cccc(C)c1NC(=O)Cn1cc(CCC(=O)Nc2cc(-c3cccnc3)ccc2N)nn1"
group B
